Provenance of the data: PubChem BioAssay (NCI)

- Test system: T-47D breast
- assay: NCI-60 one-dose screen, 48 h (100 = growth as untreated, 0 = no growth, -100 = all killed)
- details: 10 µM
About 83,000 compounds went through this panel and 20% of them were active in at least one assay; those are over-represented in the sample as a whole.
observation_type: growth (%)
Enter your answer as a number in %; do not include the unit.

Record CC[C@@]1(O)C[C@H](OC2CC(N(C)C)C(O)C(C)O2)c2c(cc3c(c2O)C(=O)c2c(O)ccc(O)c2C3=O)[C@H]1C(=O)OC (stereo partly specified) , field growth: -42

Record `[Cl][Hg][c]1ccc(Cl)s1` , field growth: -68.5

Record `COc1cc(/C=C/[N+](=O)[O-])cc(Br)c1OC` , field growth: 16.3

Record `C[C@@H]1C[C@@H]([C@H](O)CC2CC(=O)NC(=O)C2)C(=O)[C@@H](C)C1` , field growth: 1.15

Record C#CC1(O)CCC(C(C)(C)C)CC1 (stereo unspecified) , field growth: 111

Record `Oc1c(I)cc(I)cc1I` , field growth: 103

Record CC(Cc1ccc2c(c1)OCO2)NN (stereo unspecified) , field growth: 77.5

Record `[O-][n+]1ccccc1S` , field growth: 53.4

Record `O=C(CCl)Nc1ccc(Cl)cc1` , field growth: 56

Record `O=[N+]([O-])c1cc[n+]([O-])c2ccccc12` , field growth: -20.5

Record `COc1cc(/C=C/[N+](=O)[O-])cc(OC)c1OC` , field growth: 13.1

Record CS(=N)(=O)CCC(N)C(=O)O (stereo unspecified) , field growth: 111

Record `COc1ccc2c(ccc3oc([N+](=O)[O-])cc32)c1` , field growth: 15.3

Record `ClCc1ccc2ccccc2n1` , field growth: 87

Record `O=C(CBr)Nc1ccccc1` , field growth: 92.6

Record `NNc1ccccc1` , field growth: 53.9

Record `COc1ccc(/C=C(\C)[N+](=O)[O-])cc1OC` , field growth: -21.6

Record `N#CCc1ccccc1` , field growth: 103

Record `C=C1C(=O)O[C@@H]2C[C@@H](C)[C@@H]3C=CC(=O)[C@@]3(C)[C@@H](O)[C@H]12` , field growth: -58.1

Record `O=[N+]([O-])c1ccc(N(CCO)CCO)c2c1no[n+]2[O-]` , field growth: -14.9

Record `CCOP(=O)(OCC)/C(C#N)=C/c1ccc(Br)cc1` , field growth: 90.8

---

- Tested on: HL-60(TB) leukemia
- assay: NCI-60 one-dose screen, 48 h
- details: 10 µM
The panel holds about 83,000 compounds, 20% with a hit somewhere; the sample as a whole holds those more often. The source made the active and inactive calls. The calls were made as follows: active = growth percent below 10; inactive = the rest.
Classes to choose from: active, inactive

Look up the recorded call for `[Cl][Hg][c]1ccc(Cl)s1` in this test.
active

Look up the recorded call for `COc1cc(/C=C/[N+](=O)[O-])cc(OC)c1OC` in this test.
active

Look up the recorded call for `Oc1c(Cl)cc(Cl)c2ccccc12.[Cu+2]` in this test.
inactive

Look up the recorded call for `O=C1C=Cc2ccccc2C1=O` in this test.
inactive

Look up the recorded call for CS(=N)(=O)CCC(N)C(=O)O (stereo unspecified) in this test.
inactive

Look up the recorded call for C#CC1(O)CCC(C(C)(C)C)CC1 (stereo unspecified) in this test.
inactive
